# reported protein stability index; entries follow
B1: WDR41 (parent)
chain: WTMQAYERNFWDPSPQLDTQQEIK

variants of: B1; assay: protein stability index of a GFP-peptide fusion (GPS, HEK-293T) (PSI 1-6); higher = more stable; conditions: c terminus: a fixed tail appended;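 also: lentivirally expressed fusions sorted by FACS into six bins by GFP to DsRed ratio, PSI derived from sequencing read proportions per bin multiplied by bin number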
A bare number is all that is needed in reply.

Report protein stability index for `WTMQAYERNFWDPSPQLDTQQEEK` please. 3.26

Param item = `WTMQAYERNFWDVSPQLDTQQEIK` ; retrieve measured protein stability index. 2.04

Which measured protein stability index value corresponds to `WTMQAYERNFWDPSPQLDTQYEIK` ? 2.61

# get_value(readout='protein stability index', item= `WTMDAYERNFWDPSPQLDTQQEIK` ) 2.26

Query: protein stability index; subject: `WTMQAVERNFWDPSPQLDTQQEIK` 2.79

Data request, read-out protein stability index, for `WTMQAYERNFWDPNPQLDTQQEIK` 2.74

Request the reported protein stability index associated with `WTAQAYERNFWDPSPQLDTQQEIK` 2.44

I would be grateful if you could share the reported protein stability index for `WTMQAYERNFEDPSPQLDTQQEIK` . 4.57

Could you tell me which protein stability index is on file for `WTMQAYERNFWDPSQQLDTQQEIK` ? 2.08

Item `WTMQAYERNFWDCSPQLDTQQEIK` has what recorded protein stability index? 2.31

Sample `WTMQAYPRNFWDPSPQLDTQQEIK` — what was its protein stability index? 2.79
